Test system: T-47D breast
experimental_protocol: NCI-60 one-dose screen, 48 h (100 = growth as untreated, 0 = no growth, -100 = all killed)
protocol_conditions: 10 µM unless noted
Compounds without any hit were thinned out: in the full panel of roughly 83,000, 20% have a hit.
Lab note: compare growth with 40%, writing Yes if less and No if equal or more.

[Q] Hello, is growth of the following molecule strictly smaller than 40%? COc1cc(C(=O)c2c(N)ncn2-c2ccccc2)cc(OC)c1OC
[A] No

[Q] For C=CC1(C)C(O[Si](C)(C)C(C)(C)C)CC2C3OC(=O)NC31c1cccc3c1[C@H](C(=O)N3C)C2(C)C (stereo not given in full) , is the recorded growth below the cut-off of 40%?
[A] Yes

[Q] Here's an entry: CC(=O)c1cc(-c2ccccc2N)n(-c2ccc3c(c2)OCO3)c1C . Is its growth below 40%?
[A] No

[Q] Problem: For the molecule CN(C)c1ccc(/C=C/C(=O)c2ccc(Nc3nc(Nc4ccc(F)cc4)nc(Nc4ccc(Cl)cc4)n3)cc2)cc1 , is growth under 40%?
[A] No

[Q] Does Cc1cccc(N2CCN(C(=S)c3ccc4c(c3)OCO4)CC2)c1 have growth strictly under 40%?
[A] Yes

[Q] Record COC1=CC(c2ccc[nH]2)=N/C1=C\c1[nH]c(C)c(CC(=O)OCc2ccccc2)c1C : is its growth strictly below 40%?
[A] Yes

[Q] I'd appreciate it if you could check whether C=NNc1ccccc1 has growth smaller than 40%.
[A] No

[Q] Is growth of Brc1ccc(-c2cnc3nonc3n2)cc1 strictly below 40%?
[A] No

[Q] Just wondering, is growth of Cc1ccc(-c2nc(C#N)c(S(=O)(=O)NCCO)o2)cc1 below 40%?
[A] No

[Q] Does this molecule meet the criterion growth < 40%? COc1ccc(-c2ccc(=O)oc2C#Cc2cc(OC)c(OC)c(OC)c2)cc1O
[A] Yes

[Q] Report whether reported growth is lower than 40% (strictly) for CCN1C(=O)N(CC)C2C1NN=c1s/c(=C3\C(=O)N(CCc4ccccc4)c4ccccc43)c(=O)n12 (stereo not given)
[A] No

[Q] Does the reported growth of COc1ccc(C(O)c2cc3c(N)c(C(=O)Nc4cccc(Cl)c4)sc3nc2C)cc1 (stereo not given) stay below 40%?
[A] No

[Q] Is it true that growth reported for CC12CCC(/C(=C/NNc3ccc([N+](=O)[O-])cc3[N+](=O)[O-])C1=O)C2(C)C (stereo not given) is less than 40%?
[A] No

[Q] Given O=C(CCCCCCCCC(=O)N/N=C\c1cc(Cl)ccc1O)N/N=C\c1cc(Cl)ccc1O , is recorded growth strictly lower than 40%?
[A] Yes

[Q] Strictly below 40%: is that where growth of O=C(CCl)Nc1ccc2c(Nc3cc(O)ccc3Cl)ncnc2c1 sits?
[A] Yes

[Q] Please let me know if CCCCC(=O)Nc1ncc(Cc2ccccc2Cl)s1 shows growth below 40%.
[A] Yes

[Q] Check if growth falls below 40% for O=C1/C(=C/c2cccc([N+](=O)[O-])c2)COc2ccc(O)cc21 .
[A] No

[Q] hey, is growth for C=CCn1c(SCC(=O)Nc2ccc(C(=O)/C=C/c3ccc(OC)cc3)cc2)nnc1-c1ccccc1 lower than 40% or not?
[A] No

[Q] Lab log: compare recorded growth with 40%; is it strictly lower for Cn1cccc1/C=C1\C(=O)Nc2ccccc21 ?
[A] Yes

[Q] Here's an entry: C=C(CO)[C@@H]1CC[C@]2(COC3CCCCO3)CC[C@]3(C)[C@H](CC[C@@H]4[C@@]5(C)C=C(C=O)C(=O)C(C)(C)[C@@H]5CC[C@]43C)[C@@H]12 (stereo not given in full) . Is its growth below 40%?
[A] Yes

###

Tested on: SK-MEL-5 melanoma
experimental_protocol: NCI-60 one-dose screen, 48 h (100 = growth as untreated, 0 = no growth, -100 = all killed)
protocol_conditions: 10 µM unless noted
Compounds without any hit were thinned out: in the full panel of roughly 83,000, 20% have a hit. Active and inactive are the calls of the source. How the source made its calls: active means growth percent below 10; inactive means the rest.
quantity_kind: growth

[Q] Which growth is listed for NNC(=S)N/N=C/c1ccccn1 ?
[A] 30.2% (inactive)

[Q] # lookup: growth of N#C/C(=C\c1ccc(-c2ccc(Cl)cc2)o1)c1ccc(Cl)cc1
[A] 91.4% (inactive)

[Q] Please look up its growth: CCNCc1ccc(O)c2ncccc12
[A] 6.19% (active)

[Q] What growth value was documented for this compound, O=C(OC[C@@H]1CO1)c1cccc2c(=O)c3ccccc3[nH]c12 ?
[A] -90.9% (active)

[Q] Quick check: growth of C#Cc1cccc(Oc2ccc(NC(=O)CCl)cc2)c1 ?
[A] 6.75% [8.25 µM] (active)

[Q] Using the record for COc1cc(-c2nc(NC(C)=O)sc2-c2ccnc(NCCNS(=O)(=O)c3ccccc3)n2)ccc1Cl , report its growth.
[A] 1.64% (active)

[Q] What value of growth has been reported for the following compound? Clc1nn2c(Cn3cnc4c(NCc5ccccc5)ncnc43)nnc2c2ccccc12
[A] 58.6% (inactive)

[Q] Looking for the measured growth of Cc1ccc(S(=O)(=O)n2cc(C3C(Cl)C(=O)N3c3ccc(N4CCOCC4=O)cc3)c3ccccc32)cc1 (stereo unspecified) , can you help?
[A] 43.8% (inactive)

[Q] Query: growth; subject: CC(/C=C1\SC(=S)N(CC(=O)NC(Cc2c[nH]c3ccccc23)C(=O)O)C1=O)=C\c1ccccc1 (stereo unspecified)
[A] 96.4% (inactive)

[Q] Tell me the measured growth of C=C1C(=O)O[C@H]2[C@H]1CC/C(Cn1cc(-c3cc(C(F)(F)F)cc(C(F)(F)F)c3)nn1)=C\CC[C@@]1(C)O[C@@H]21 , please.
[A] -99.5% (active)

[Q] Tell me the measured growth of CCN1C(=O)N(CC)C2C1NN=C1SCC(=O)N12 (stereo unspecified) , please.
[A] 101% (inactive)

[Q] What growth value was documented for this compound, COc1ccc2c(c1)c(-c1cc(-c3cn(C)c4ccc(OC)cc34)on1)cn2C ?
[A] 81.2% (inactive)

[Q] // query growth value for entry O=C(O)c1cn(C2CC2)c2cc(N3CCN(C(=O)N/N=C/c4ccccc4)CC3)c(F)cc2c1=O
[A] 94.9% (inactive)

[Q] Given the compound CC(C)c1ccc(NC(=O)Nc2ccc(NC(=O)c3ccccc3N)cc2)cc1 , what is its reported growth?
[A] 24.3% (inactive)

[Q] If you can, please state the reported growth value of CCCCC(=O)Nc1ncc(Cc2ccccc2Cl)s1 .
[A] 37.6% (inactive)

[Q] I would be grateful if you could share the reported growth for CC1(C)C2CC=C(/C=N/NC(=O)C3CCC(=O)N3)C1C2 (stereo unspecified) .
[A] 101% (inactive)

[Q] Any idea what growth was measured for COc1ccccc1-n1c(-c2cc(O)ccc2C)cn2c3c(=O)[nH]c(=O)n(C)c3nc12 ?
[A] 77.3% (inactive)

[Q] growth for COc1ccc(OC)c(Nc2nnc(-c3ccc(Cl)cc3)o2)c1 ?
[A] 104% (inactive)

[Q] Data request, read-out growth, for O=C(Nc1cccnc1Nc1ccc(Cl)cc1)c1cn(Cc2ccc(F)cc2)nn1
[A] 100% (inactive)

[Q] Reported growth for CC(C)c1ccc(C(=O)Nc2sc3cc(O)ccc3c2C#N)cc1 : what is it?
[A] 22.3% (inactive)

[Q] Requested read-out: growth. Entry: COc1ccc(/C=C/C(=O)c2ccc(NC(=O)CSc3nnc(-c4cc(-c5ccccc5)nc5ccccc45)n3-c3ccccc3)cc2)cc1
[A] 97.5% (inactive)

###

Test system: T-47D breast
experimental_protocol: NCI-60 one-dose screen, 48 h (100 = growth as untreated, 0 = no growth, -100 = all killed)
protocol_conditions: 10 µM unless noted
The panel holds about 83,000 compounds, 20% with a hit somewhere; the sample as a whole holds those more often.
Label scheme for growth: lower band (below 30%), central band (30% to below 60%), upper band (60% or more)

[Q] In plain terms, what class is COc1ccc(/C(C)=C(\c2ccc(Cl)cc2)c2ccc(OCCN3CCCC3)cc2)cc1 ?
[A] central band

[Q] For O=C(Cn1cc(CN2C(=O)c3ccccc3S2(=O)=O)nn1)Nc1cccc(Cl)c1 , which growth bin applies?
[A] upper band

[Q] Band assignment needed for COc1cccc(/C=C/C(=O)c2cc3c(N)c(C(=O)Nc4cccc(Cl)c4C)sc3nc2C)c1 please.
[A] lower band

[Q] Determine which band this compound sits in: Cc1cc(F)ccc1S(=O)(=O)Nc1cc(-c2c(O)ccc3ccccc23)c(O)c2ccccc12
[A] lower band

[Q] Category of O=C1/C(=C/c2ccccc2[N+](=O)[O-])COc2ccc(O)cc21 , please.
[A] lower band

[Q] For CCCCCCCCNc1cc2c3c(c1)CCCN3CCC2 , which growth bin applies?
[A] lower band

[Q] Into which category would you place N#Cc1c(-c2ccccc2)cc(-c2ccccc2)n(CCCC(=O)NO)c1=O ?
[A] lower band

[Q] Category of CCNC(=O)Oc1ccc(/C(=C(/C)Cc2ccc(OC)cc2)c2ccc(OCCN3CCCC3)cc2)cc1 :
[A] central band

[Q] // bin(item) where item = O=C1Nc2ccccc2C2c3cccn3-c3ccccc3N12 (stereo unspecified)
[A] upper band

[Q] Where would CCOC(=O)c1cn2ncnc(Oc3ccc(NC(=O)NC4CC4)c(F)c3)c2c1C land among the classes by reported growth?
[A] upper band

[Q] # classify by growth band: O=C(NCc1ccc2c(c1)OCO2)NCC1CCCC(CNC(=O)NCc2ccc3c(c2)OCO3)C1 (stereo unspecified)
[A] upper band

[Q] Hi, small favor: classify CC1CN=C(c2cccc(-c3ccc(-c4ccccc4)o3)c2)N1 (stereo unspecified) by its growth when you get a moment.
[A] lower band

[Q] Which category fits this record: O=C1NC(=C(Cl)Cl)/C(=N/S(=O)(=O)N2CCCCC2)N1
[A] central band

[Q] Into which category would you place O=c1[nH]cnc2c1C(c1ccc(Br)cc1)c1sc3c(F)cccc3c1O2 (stereo unspecified) ?
[A] upper band

[Q] Place this compound in its band: C=C(CN1CC=CCC1)[C@@H]1CC[C@]2(CO)CC[C@]3(C)[C@H](CC[C@@H]4[C@@]5(C)CC[C@H](O)C(C)(C)[C@@H]5CC[C@]43C)[C@@H]12
[A] upper band

[Q] Class? Entry: O=C(CCCCCCN1CC(=O)N2[C@@H](C3CCCCC3)c3[nH]c4ccccc4c3C[C@H]2C1=O)NO
[A] central band

[Q] Classify this compound: CC/C=C\C/C=C/C=C1/C(=O)C=C[C@@H]1C/C=C\CCCC(=O)OC
[A] lower band

[Q] Please classify: CC(C)=CC(=O)N[C@@H]1CC2CCC3C(CC[C@@]4(C)C3CC[C@@H]4C(C)N(C)C)[C@@]2(C)C[C@@H]1O (stereo partly specified)
[A] lower band

[Q] For N=C(N)c1ccc(-c2ccc(-c3ccc(F)cc3)s2)s1 , which growth bin applies?
[A] lower band

[Q] Note: place this compound into its band. Item: CN(C)c1ccc(-c2cc(-c3ccc(Nc4nc(Nc5ccc(Cl)cc5)nc(Nc5ccc(Cl)cc5)n4)cc3)nc(N)c2C#N)cc1
[A] central band

[Q] Where would O=C1NC(=Nc2ccc(O)cc2)S/C1=C\c1cccs1 land among the classes by reported growth?
[A] central band

[Q] Hi, small favor: classify C#CC#CC#CC#CC#CC#CC#CC#CC[C@H]1OC[C@@H](COC(=O)O[C@@H](C(=O)O[C@H]2C[C@@]3(O)[C@@H](OC(=O)c4ccccc4)[C@@H]4[C@]5(OC(C)=O)CO[C@@H]5C[C@H](O)[C@@]4(C)C(=O)[C@H](OC(C)=O)C(=C2C)C3(C)C)[C@@H](NC(=O)c2ccccc2)c2ccccc2)O1 by its growth when you get a moment.
[A] central band

[Q] Band of CCCCCCCCn1ccc2cc(NC(=O)Cn3cc(CN4CCC(C)CC4)nn3)ccc21 ?
[A] lower band

[Q] Tag the class for Cn1c(=O)c2c(nc(NC3=NS(=O)(=O)c4ccccc43)n2Cc2ccccc2)n(C)c1=O
[A] upper band

[Q] Hello team, could you let me know which band the following compound falls into: COc1cc2cc(Oc3ccc(NC(=O)Nc4ccccc4)cc3)c(C)nc2cc1OCCN1CCCCC1
[A] upper band

[Q] Sort into band: COc1ccc(Cc2cnc(NC(=O)c3sc4ccccc4c3Cl)s2)cc1
[A] central band

[Q] Lab note: sort C=CC(C)(O)CC/C=C(\CO)C(=O)OC1C(C)OC(O[C@](C)(C=C)CC/C=C(\CO)C(=O)O[C@H]2C[C@@]3(C(=O)OC4OC(CO)C(O)C(O)C4OC4OC(C)C(OC5OC(CO)C(O)C5O)C(OC5OC(CO)C(O)C(O)C5O)C4O)C(CC2(C)C)C2=CCC4[C@@]5(C)CC[C@H](OC6OC(COC7OC(C)C(O)C(O)C7OC7OCC(O)C(O)C7O)C(O)C(O)C6NC(C)=O)C(C)(C)C5CC[C@@]4(C)[C@]2(C)C[C@H]3O)C(O)C1O (stereo partly specified) into the matching growth band.
[A] lower band

[Q] Classify this compound: CC(C)CCC[C@@H](C)C1CCC2C3CCC4=C/C(=N/OCCN(C)C)CC[C@]4(C)C3CC[C@@]21C (stereo partly specified)
[A] upper band

[Q] For this compound, which bin applies? CCN(C(=O)N1CCN(c2cc3c(cc2F)c(=O)c(C(=O)O)cn3C2CC2)CC1)c1nc(-c2ccc(C)cc2)cs1
[A] lower band

[Q] Form field 'band' for CN1CCN(CCCOC(=O)c2c3c(n4ccccc24)C(=O)c2ncccc2C3=O)CC1
[A] central band

[Q] Form field 'band' for COc1cc(/C=C\c2cc(/C=C\c3ccc(O)c(OC)c3)n(C(=O)CNc3ccc(Cl)cc3)n2)ccc1O
[A] central band

[Q] Which bin should I file CCN(CCO)CC(C)Nc1ccc([N+](=O)[O-])c2sc3ccccc3c(=O)c12 (stereo unspecified) under?
[A] central band

[Q] State the band of Cn1cc(/C=C2/C(=O)Nc3ccccc32)c2ccccc21
[A] upper band

[Q] Class (by measured growth) for COc1cc(C2=NN(C(C)=O)C(c3ccc(N(C)C)cc3)C2)cc(OC)c1OC (stereo unspecified)
[A] upper band

[Q] Bin this entry: COc1ccc2c(c1)c(-c1nonc1-c1cn(C)c3ccc(OC)cc13)cn2C
[A] central band
